- Target or system: 20S proteasome extracted from rat liver (PGPH) (Rattus norvegicus, UniProt P28073+Q9JHW0)
- Construct: 20S proteasome extracted from rat liver; from tissue; host or cells: rat liver
- Method: inhibition of 20S proteasome, PGPH activity (fluorescent peptide)
- Format: biochemical
- Measurement parameters: 20 μM; rat liver 20S proteasome, 37° C., 1 h; read-out: inhibition rates (%) PGPH
Listed compounds paired with reported inhibition at 20 µM
Reported property: inhibition at 20 µM (%)

[
  {
    "Compound": "CC(C)C[C@H](NC(=O)N[C@@H](Cc1ccccc1)C(=O)Nc1cnccn1)B1OC2C[C@H]3C[C@H](C3(C)C)[C@@]2(C)O1 (stereo partly shown)",
    "Reported property": "inhibition at 20 µM",
    "Result value": 0.485
  },
  {
    "Compound": "COc1ccc(CNC(=O)[C@H](Cc2ccccc2)NC(=O)N[C@@H](CC(C)C)B(O)O)cc1",
    "Reported property": "inhibition at 20 µM",
    "Result value": 96.6
  },
  {
    "Compound": "CC(C)C[C@H](NC(=O)N[C@@H](Cc1ccccc1)C(=O)N[C@@H](CC(C)C)C(=O)Nc1cnccn1)B1OC(C)(C)C(C)(C)O1",
    "Reported property": "inhibition at 20 µM",
    "Result value": 96.8
  },
  {
    "Compound": "CC(C)C[C@H](NC(=O)N[C@@H](Cc1ccccc1)C(=O)Nc1cccc(OCc2ccccc2)c1)B(O)O",
    "Reported property": "inhibition at 20 µM",
    "Result value": 62.7
  },
  {
    "Compound": "CC(C)C[C@H](NC(=O)N[C@@H](Cc1ccccc1)C(=O)Nc1cnccn1)B(O)O",
    "Reported property": "inhibition at 20 µM",
    "Result value": 93.8
  },
  {
    "Compound": "CC(C)C[C@H](NC(=O)[C@H](Cc1ccccc1)NC(=O)Nc1cnccn1)B(O)O",
    "Reported property": "inhibition at 20 µM",
    "Result value": 94.5
  },
  {
    "Compound": "COc1ccc(NC(=O)[C@H](Cc2ccccc2)NC(=O)N[C@@H](CC(C)C)B2OC3C[C@H]4C[C@H](C4(C)C)[C@@]3(C)O2)cc1 (stereo partly shown)",
    "Reported property": "inhibition at 20 µM",
    "Result value": 34.1
  },
  {
    "Compound": "CC(C)C[C@H](NC(=O)[C@H](Cc1ccccc1)NC(=O)[C@H](Cc1ccccc1)NC(=O)Nc1cccc(OCc2ccccc2)c1)B(O)O",
    "Reported property": "inhibition at 20 µM",
    "Result value": -20.3
  },
  {
    "Compound": "COc1ccc(OC)c(CNC(=O)N[C@@H](Cc2ccccc2)C(=O)N[C@@H](CC(C)C)B(O)O)c1",
    "Reported property": "inhibition at 20 µM",
    "Result value": 97.1
  },
  {
    "Compound": "CC(C)C[C@H](NC(=O)CNC(=O)Nc1cccc(OCc2ccccc2)c1)B(O)O",
    "Reported property": "inhibition at 20 µM",
    "Result value": 96.9
  },
  {
    "Compound": "CC(C)C[C@H](NC(=O)[C@H](Cc1ccccc1)NC(=O)Nc1cccc(OCc2ccccc2)c1)B(O)O",
    "Reported property": "inhibition at 20 µM",
    "Result value": 92.4
  },
  {
    "Compound": "COc1ccc(CNC(=O)N[C@@H](Cc2ccccc2)C(=O)N[C@@H](CC(C)C)B(O)O)cc1",
    "Reported property": "inhibition at 20 µM",
    "Result value": 96.8
  },
  {
    "Compound": "CC(C)C[C@H](NC(=O)[C@H](Cc1ccccc1)NC(=O)N[C@@H](Cc1ccccc1)C(=O)Nc1cnccn1)B(O)O",
    "Reported property": "inhibition at 20 µM",
    "Result value": -24.2
  },
  {
    "Compound": "CC(C)C[C@H](NC(=O)[C@H](Cc1ccccc1)NC(=O)NCc1cccc(Cl)c1Cl)B(O)O",
    "Reported property": "inhibition at 20 µM",
    "Result value": -28.9
  },
  {
    "Compound": "CC(C)C[C@H](NC(=O)N[C@H](Cc1ccccc1)C(=O)Nc1cnccn1)B(O)O",
    "Reported property": "inhibition at 20 µM",
    "Result value": 96
  },
  {
    "Compound": "COc1ccc(OC)c(CNC(=O)N[C@@H](Cc2ccccc2)C(=O)N[C@@H](CC(C)C)B2OC3CC4CC(C4(C)C)[C@]3(C)O2)c1 (stereo partly shown)",
    "Reported property": "inhibition at 20 µM",
    "Result value": 97.2
  },
  {
    "Compound": "CC(C)C[C@H](NC(=O)CNC(=O)Nc1cc(Cl)ccc1Cl)B(O)O",
    "Reported property": "inhibition at 20 µM",
    "Result value": 5.29
  },
  {
    "Compound": "CC(C)C[C@H](NC(=O)[C@H](Cc1ccccc1)NC(=O)NCc1ccccc1)B(O)O",
    "Reported property": "inhibition at 20 µM",
    "Result value": 97
  },
  {
    "Compound": "CC(C)C[C@H](NC(=O)N[C@@H](Cc1ccccc1)C(=O)Nc1cccc(OCc2ccccc2)c1)B1OC2C[C@H]3C[C@H](C3(C)C)[C@@]2(C)O1 (stereo partly shown)",
    "Reported property": "inhibition at 20 µM",
    "Result value": 9.71
  }
]

// provenance: patent US10494384B2
